- system name: T1, PSMA Fab (006 PSMA Fab) (biotinylated (site not stated))
- T1 construct: Biotinylated PSMA Fab captured on neutravidin coated plates in the phage ELISA; also called Anti-PSMA Fab; anti-PSMA Fab
- assay protocol: clonal phage supernatant on biotinylated PSMA Fab captured on neutravidin plate, anti-M13-HRP detection;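 further: before phage were added, wells received PSMA antigen in blocking buffer or blocking buffer alone, with no wash in between, followed by a short phage incubation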
Where no end group is shown, it is not given here.
I'd appreciate it if you could supply Phage binding ELISA signal, Anti-PSMA Fab values for the items below.
No unit in the answer, only the number.

Q) Bench note: what Phage binding ELISA signal, Anti-PSMA Fab did EVLLCKPSWMCDGF (not shown: pIII filament protein of the bacteriophage) [Phage-3701] show?
A) 1.44

Q) Bench note: what Phage binding ELISA signal, Anti-PSMA Fab did GQAACVPSWMCSGF (cysteine pairing not given here; also: displayed on phage as pIII fusion, not shown: pIII filament protein of the bacteriophage) [Phage-3714] show?
A) 1.42

Q) Bench note: what Phage binding ELISA signal, Anti-PSMA Fab did VPRMCIPHWMCEGI (not shown: pIII filament protein of the bacteriophage) [Phage-3703] show?
A) 1.43

Ref: patent US20260242478A1
